tested on: velvetleaf (Abutilon theophrasti); experiment: Test C preemergence; type: in vivo; settings: 125 g ai/ha, scale 0 to 100, 0 no effect, 100 complete control
Readout: Plant response rating, Velvetleaf

                                   molecule                      target_entity  experimental_value
0  CN1CC(c2cccc(OC(F)F)c2)C(C(=O)Nc2ccccc2F)C1=O (stereo not drawn)  velvetleaf (Abutilon theophrasti)                  55
1  CN1CC(c2cccc(OC(F)(F)C(F)F)c2)C(C(=O)Nc2ccc(F)cc2F)C1=O (stereo not drawn)  velvetleaf (Abutilon theophrasti)                  50
2  CN1CC(c2cccc(C(F)(F)F)c2)C(C(=O)Nc2ccccc2S(C)(=O)=O)C1=O (stereo not drawn)  velvetleaf (Abutilon theophrasti)                  45
3  CN1CC(c2ccc(C(F)(F)F)cc2)C(C(=O)Nc2ccccc2S(C)(=O)=O)C1=O (stereo not drawn)  velvetleaf (Abutilon theophrasti)                  45
4  CN1CC(c2ccc(C(F)(F)F)c(F)c2)C(C(=O)Nc2ccccc2S(C)(=O)=O)C1=O (stereo not drawn)  velvetleaf (Abutilon theophrasti)                  30
5  CN1C[C@H](c2ccc(C(F)(F)F)cc2)[C@@H](C(=O)Nc2ccccc2F)C1=O  velvetleaf (Abutilon theophrasti)                  70

* * *

system: barnyardgrass (Echinochloa crus-galli); experiment: Test A postemergence; type: in vivo; settings: Echinochloa crus-galli, post-emergence, 240 h, 125 g ai/ha, postemergence, visual injury vs untreated controls after approx. 10 d; 0 = no effect, 100 = complete control; read-out: Barnyardgrass plant response rating (0 to 100 scale)
Readout: pest or weed control at 125 g/ha (%)

>>> print(df.to_string())
                                        smi                           readout  measurement_units  experimental_value
0  N#Cc1cc([C@H]2CNC(=O)[C@]2(O)C(=O)Nc2ccccc2F)ccc1F  pest or weed control at 125 g/ha                  %                   0
1  Cc1cc([C@H]2CNC(=O)[C@@H]2C(=O)Nc2ccccc2C(F)(F)F)ccc1Cl  pest or weed control at 125 g/ha                  %                  40
2  Cc1ccc([C@H]2CNC(=O)[C@@H]2C(=O)Nc2c(F)cccc2F)cc1C  pest or weed control at 125 g/ha                  %                  40
3  CCc1cc([C@H]2CN(C)C(=O)[C@@H]2C(=O)Nc2ccccc2F)cs1  pest or weed control at 125 g/ha                  %                  90
4  CN1C[C@H](c2ccc3ncccc3c2)[C@@H](C(=O)Nc2cccc(F)c2F)C1=O  pest or weed control at 125 g/ha                  %                  50
5  CN1C[C@H](c2ccc(Cl)c(F)c2)[C@@H](C(=O)Nc2cccc(F)c2F)C1=O  pest or weed control at 125 g/ha                  %                  90
6  CN1CC[C@H](c2ccc(C(F)(F)F)cc2)[C@@H](C(=O)Nc2cccc(F)c2F)C1=O  pest or weed control at 125 g/ha                  %                  90
7  COc1ccc(C(F)(F)F)cc1[C@H]1CN(C)C(=O)[C@@H]1C(=O)Nc1cccc(F)c1F  pest or weed control at 125 g/ha                  %                  80
8  CSc1ccccc1NC(=O)[C@H]1C(=O)NC[C@@H]1c1ccc2c(c1)OCO2  pest or weed control at 125 g/ha                  %                   0
9  Cc1c(F)cccc1NC(=O)[C@H]1C(=O)N(C)C[C@@H]1c1ccc2c(c1)OC(F)(F)O2  pest or weed control at 125 g/ha                  %                  80

All figures here come from patent US12077503B2.
